Just for reference, patent US11261186B2 is where these values come from.

assayed-system: hGPR120 (Homo sapiens, UniProt Q5NUL3)
Sequence (Q5NUL3 whole entry): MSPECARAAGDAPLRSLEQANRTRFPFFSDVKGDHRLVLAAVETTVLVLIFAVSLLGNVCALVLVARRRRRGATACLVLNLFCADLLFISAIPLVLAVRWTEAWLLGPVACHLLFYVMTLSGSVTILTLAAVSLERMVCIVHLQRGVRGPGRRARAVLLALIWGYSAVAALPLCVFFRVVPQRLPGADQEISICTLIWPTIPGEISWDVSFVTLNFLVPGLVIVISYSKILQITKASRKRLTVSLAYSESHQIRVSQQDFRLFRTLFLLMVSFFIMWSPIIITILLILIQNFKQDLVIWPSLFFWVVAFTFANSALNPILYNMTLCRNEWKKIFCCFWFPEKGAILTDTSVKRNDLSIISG
assay-name: Measurement of Activity of GPR120 Agonist (Cell-Based Assay), Calcium 5 dye fluorescence
particulars: CHO-K1 cells expressing Ga16 and hGPR120
Each item that follows carries a reported EC50.

// below: answered compounds
                                   compound  measure       result
0  CN(CCCC(=O)O)c1c(F)cc(-c2ccc(Cl)c(OC3CCC3)n2)cc1F [Example 531]     EC50  0.2 to 2 µM
1  O=C(O)CCC1CCc2cc(-c3cccc(OC4CCCC4)n3)ccc2O1 (centres unmarked) [Example 9]     EC50     < 0.2 µM
2  O=C(O)CC1CCN(c2c(F)cc(-c3cccc(NC4CCCC4)n3)cc2F)CC1 [Example 358]     EC50  0.2 to 2 µM

Now take the following compound into account.
# CC(C)Sc1ncccc1-c1cc(F)c(N2CCC3(CC2)CC3C(=O)O)c(F)c1 (centres unmarked) [Example 110] with hGPR120 (Homo sapiens, UniProt Q5NUL3): EC50 is 0.2 to 2 µM
